- ASSAY EXPLANATION: chemical genetic growth profiling, strain panel (AID 1159580);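 further: tested at 20 µM; growth read once vehicle control cultures reached saturation at 30 °C; 1 = growth at the plate median or of vehicle wells; lower values mean less growth of the strain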
- COND: S. cerevisiae deletion strains, growth OD, locus YOR290C, strain snf2, hits give low values
Hit rate of the full screen: of about 5,500 compounds, about 2,000 (36%) were called active. Inconclusive results (about 18%) are left out. This is one part of the list.
QUANTITY: normalized growth
No unit in the answer, only the number.

Query: # query: normalized growth of entry O=c1cc(-c2ccccc2)oc2cc(O)c(O)c(O)c12
Reply: 0.0825

Query: What about this molecule? Cc1cc(C)cc(OCC2CNC(=O)O2)c1 (configuration not stated)
Reply: 0.982

Query: What about this molecule? S=P(N1CC1)(N1CC1)N1CC1
Reply: 1.01

Query: What about this molecule? CC(CN(C)C)CN1c2ccccc2Sc2ccccc21 (configuration not stated)
Reply: 1.02

Query: What about this molecule? COc1cc(S(C)=O)ccc1-c1nc2ncccc2[nH]1 (configuration not stated)
Reply: 0.951

Query: What about this molecule? CO[C@]12C[C@@H](COC(=O)c3cncc(Br)c3)CN(C)[C@@H]1Cc1cn(C)c3cccc2c13
Reply: 0.982

Query: What about this molecule? C[C@H](CCC(=O)O)[C@H]1CCC2C3C(CC[C@@]21C)[C@@]1(C)CC[C@@H](O)C[C@H]1C[C@H]3O (some centres not stated)
Reply: 0.979

Query: What about this molecule? C[C@]12C=CC(=O)C=C1CCC1C3C[C@@H](O)[C@](O)(C(=O)CO)[C@@]3(C)C[C@H](O)[C@@]12F (some centres not stated)
Reply: 0.962

Query: What about this molecule? C[C@@H]1O[C@@H](O[C@H]2C[C@@H](O)[C@]3(CO)C4C(CC[C@]3(O)C2)[C@@]2(O)CC[C@H](C3=CC(=O)OC3)[C@@]2(C)C[C@H]4O)[C@H](O)[C@H](O)[C@H]1O (some centres not stated)
Reply: 1.04

Query: What about this molecule? CC(CN1c2ccccc2Sc2ccccc21)N(C)C (configuration not stated)
Reply: 0.96

Query: What about this molecule? NNCCc1ccccc1
Reply: 1

Query: What about this molecule? CCCCCC1C(=O)CCC1CC(=O)O (configuration not stated)
Reply: 0.916

Query: What about this molecule? O=C(O)CCC(=O)Nc1ccc(S(=O)(=O)Nc2nccs2)cc1
Reply: 0.984

Query: What about this molecule? CCN(CC)C(C)CN1c2ccccc2Sc2ccccc21 (configuration not stated)
Reply: 0.89

Query: What about this molecule? C/C=C/C(=O)N(CC)c1ccccc1C
Reply: 1.01

Query: What about this molecule? CNCCCN1c2ccccc2CCc2ccccc21
Reply: 0.981

Query: What about this molecule? CC(CN(C)C)CN1c2ccccc2CCc2ccccc21 (configuration not stated)
Reply: 0.927

Query: What about this molecule? Cc1nc2ccccn2c(=O)c1CCN1CCC(C(=O)c2ccc(F)cc2)CC1
Reply: 0.989

Query: What about this molecule? CCC(=O)Nc1ccc(Cl)c(Cl)c1
Reply: 0.988

Query: What about this molecule? CC(=O)O[C@H]1C[C@@H](OC(C)=O)C(C)(C)C2CC(=O)[C@]3(C)C(CC[C@@]4(C)[C@H](c5ccoc5)OC(=O)[C@H]5O[C@]543)[C@]21C (some centres not stated)
Reply: 1

Query: What about this molecule? O=C(O)c1ccccc1C(=O)Nc1ccc(S(=O)(=O)Nc2nccs2)cc1
Reply: 0.959

Query: What about this molecule? CN(C)C(=O)Nc1ccc(Cl)c(Cl)c1
Reply: 0.926

----------
- ASSAY EXPLANATION: chemical genetic growth profiling, strain panel (AID 1159580);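 further: tested at 20 µM; growth read once vehicle control cultures reached saturation at 30 °C; 1 = growth at the plate median or of vehicle wells; lower values mean less growth of the strain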
- COND: S. cerevisiae deletion strains, growth OD, locus YIL073C, strain SPO22, hits give low values
Screen size: about 5,500 compounds; about 2,000 (36%) were called active. About 18% were inconclusive and are not listed. This is one part of the list.
One threshold, 1, splits the recorded normalized growth values: lower ones are Yes, equal or higher ones are No.

Query: Is normalized growth of O=C(O)CCCOc1ccc(Cl)cc1Cl strictly below 1?
Reply: No

Query: What about this molecule? CN(C(=O)CN(CCO)CC(=O)N(C)C(C)(C)Cc1ccccc1)C(C)(C)Cc1ccccc1
Reply: No

Query: What about this molecule? CN(C)CCOC(=O)COc1ccc(Cl)cc1
Reply: No

Query: What about this molecule? O=C(Nc1ccccc1)c1ccccc1O
Reply: Yes

Query: What about this molecule? CNCCCN1c2ccccc2CCc2ccccc21
Reply: Yes

Query: What about this molecule? COc1cc(S(C)=O)ccc1-c1nc2ncccc2[nH]1 (configuration not stated)
Reply: Yes

Query: What about this molecule? N#C/C(=C\c1cccc(O)c1)C(=O)O
Reply: No

Query: What about this molecule? NC(Cc1ccc(F)cc1)C(=O)O (configuration not stated)
Reply: No

Query: What about this molecule? N[C@H](Cc1ccccc1)C(=O)O
Reply: No

Query: What about this molecule? NS(=O)(=O)c1cc2c(cc1Cl)NC(C1CC3C=CC1C3)NS2(=O)=O (configuration not stated)
Reply: No

----------
- ASSAY EXPLANATION: chemical genetic growth profiling, strain panel (AID 1159580);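 further: tested at 20 µM; growth read once vehicle control cultures reached saturation at 30 °C; 1 = growth at the plate median or of vehicle wells; lower values mean less growth of the strain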
- COND: S. cerevisiae deletion strains, growth OD, locus YCL016C, strain dcc1
In all, about 5,500 compounds went through this assay and about 2,000 (36%) were called active. Inconclusive results (about 18%) are left out. Cut-off read from the data, not from the text of the source: active = normalized growth mostly below about 0.91 (no sharp cut-off); inconclusive = no clear call, values can overlap the other calls; inactive = mostly above about 0.92. Some of the results follow.
Result category, one only: true (1) = active, false (0) = inactive

Query: What did this assay record as the result for CCCC(CCC)C(=O)O ?
Reply: false (0)

Query: What about this compound? O=c1cc(-c2ccccc2)oc2c(O)c(O)ccc12
Reply: false (0)

Query: What about this compound? O=c1cc(-c2ccc(O)cc2)oc2cc(O)ccc12
Reply: false (0)

Query: What about this compound? COC(=O)CCC(C)C1CCC2C3CC[C@@H]4C[C@H](O)CC[C@]4(C)C3C[C@H](O)[C@]12C (stereo partly specified)
Reply: false (0)

Query: What about this compound? CC(CCC(=O)O)[C@H]1CCC2C3C(C[C@H](O)[C@@]21C)[C@@]1(C)CC[C@@H](O)C[C@H]1C[C@H]3O (stereo partly specified)
Reply: false (0)

Query: What about this compound? CCCCCC1C(=O)CCC1CC(=O)OC (stereo unspecified)
Reply: false (0)

Query: What about this compound? Cc1nc2ccccn2c(=O)c1CCN1CCC(C(=O)c2ccc(F)cc2)CC1
Reply: false (0)

Query: What about this compound? CC(CCC(=O)O)[C@H]1CCC2C3C[C@H](O)[C@@H]4C[C@H](O)CC[C@]4(C)C3CC[C@@]21C (stereo partly specified)
Reply: false (0)

Query: What about this compound? CC(CCC(=O)O)[C@H]1CCC2C3CC[C@@H]4C[C@H](O)CC[C@]4(C)C3C[C@H](O)[C@@]21C (stereo partly specified)
Reply: false (0)

Query: What about this compound? COc1cc(S(C)=O)ccc1-c1nc2ncccc2[nH]1 (stereo unspecified)
Reply: false (0)

Query: What about this compound? CCCC(C(=O)OCCN(CC)CC)(c1ccccc1)c1ccccc1
Reply: false (0)

Query: What about this compound? C/C=C/C(=O)N(CC)c1ccccc1C
Reply: false (0)

Query: What about this compound? CCCCS(=N)(=O)CCC(N)C(=O)O (stereo unspecified)
Reply: false (0)

Query: What about this compound? CCCCCC1C(=O)CCC1CC(=O)O (stereo unspecified)
Reply: false (0)

Query: What about this compound? CC[C@H](CCC(C)[C@H]1CCC2C3CCC4C[C@@H](O)CC[C@]4(C)C3CC[C@@]21C)C(C)C (stereo partly specified)
Reply: false (0)

Query: What about this compound? Nc1ccn(C2O[C@H](CO)[C@@H](O)[C@H]2O)c(=O)n1 (stereo partly specified)
Reply: false (0)

Query: What about this compound? CC(CCC(=O)O)[C@H]1CCC2C3CC[C@@H]4C[C@H](O)CC[C@]4(C)C3CC[C@@]21C (stereo partly specified)
Reply: true (1)

Query: What about this compound? O=C(O)CCC(=O)Nc1ccc(S(=O)(=O)Nc2nccs2)cc1
Reply: false (0)

Query: What about this compound? Nc1cc(C(Cl)=C(Cl)Cl)c(S(N)(=O)=O)cc1S(N)(=O)=O
Reply: false (0)

Query: What about this compound? CN(CCC(N)CC(=O)N[C@H]1C=CC(n2ccc(N)nc2=O)O[C@@H]1C(=O)O)C(=N)N (stereo partly specified)
Reply: false (0)

Query: What about this compound? CC1(C)C(O)CC(O)C2(C)C1CC(O)C1(C)C2CCC2(C)C(c3ccoc3)OC(=O)C3OC321 (stereo unspecified)
Reply: false (0)

----------
- ASSAY EXPLANATION: chemical genetic growth profiling, strain panel (AID 1159580);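 further: tested at 20 µM; growth read once vehicle control cultures reached saturation at 30 °C; 1 = growth at the plate median or of vehicle wells; lower values mean less growth of the strain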
- COND: S. cerevisiae deletion strains, growth OD, locus YLR221C, strain rsa3, hits give low values
Hit rate of the full screen: of about 5,500 compounds, about 2,000 (36%) were called active. Not shown: some 18% with an inconclusive outcome. This is one part of the list.
QUANTITY: normalized growth
No unit in the answer, only the number.

Query: # query: normalized growth of entry N[C@H](Cc1cc(I)c(Oc2ccc(O)c(I)c2)c(I)c1)C(=O)O
Reply: 0.945

Query: What about this compound? N[C@H](Cc1ccccc1)C(=O)O
Reply: 0.975

Query: What about this compound? NC(Cc1ccc(F)cc1)C(=O)O (stereo unspecified)
Reply: 0.993

Query: What about this compound? CO[C@]12C[C@@H](COC(=O)c3cncc(Br)c3)CN(C)[C@@H]1Cc1cn(C)c3cccc2c13
Reply: 0.973

Query: What about this compound? CN(CCC(N)CC(=O)N[C@H]1C=CC(n2ccc(N)nc2=O)O[C@@H]1C(=O)O)C(=N)N (stereo partly specified)
Reply: 0.871

Query: What about this compound? C/C=C/C(=O)N(CC)c1ccccc1C
Reply: 1
